# Lookup of reported log10 of MIC50 keyed by entry
# System: Human alphaherpesvirus 2
# protocolText: Evaluation of antiviral activity against Herpes simplex virus type 2 (HSV-2) strain G
# Type: functional
readoutKind: log10 of MIC50 (log10 of the value in µg/mL)

molecule: O=c1[nH]c(=O)n([C@H]2C[C@H](O)[C@@H](COP(=O)(O)O)O2)cc1C(F)(F)F
log10 of MIC50: -0.15
//
molecule: N.O=c1[nH]c(=O)n([C@H]2C[C@@H]3O[PH](O)(O)OC[C@H]3O2)cc1I
log10 of MIC50: 1.00
//
molecule: O=c1[nH]c(=O)n([C@H]2C[C@H](O)[C@@H](CO)O2)cc1Cl
log10 of MIC50: 0.00
//
molecule: O=c1[nH]c(=O)n([C@H]2C[C@H](O)[C@@H](CO)O2)cc1F
log10 of MIC50: 0.90
//
molecule: N.O=c1[nH]c(=O)n([C@H]2C[C@@H]3O[PH](O)(O)OC[C@H]3O2)cc1Br
log10 of MIC50: 0.30
//
molecule: O=c1[nH]c(=O)n([C@H]2C[C@H](O)[C@@H](CO)O2)cc1C(F)(F)F
log10 of MIC50: -0.22
//
molecule: O=c1[nH]c(=O)n([C@H]2C[C@H](O)[C@@H](COP(=O)(O)O)O2)cc1F [5-FLUORODEOXYURIDYLATE]
log10 of MIC50: 0.85
